test system: Hs-578T; test: NCI tumour cell line growth inhibition, 48 h
Active and inactive are the calls of the source. Rule as the data show it: active = GI50 up to about 1.1 µM and inactive = higher. Starred links: 1 amine or outer side, 2 acyl side, 3 side chain; linkers in the order of their positions; H or OH if unused. Positions of bridges follow the written chain, without caps; N, C: chain ends. Non-standard residues stand in square brackets, D forms with d. Residues, ends and D or L forms follow the SMILES beside them. ξ: configuration not given here. X37 = CC[C@H](C)[C@@H](N[*:1])[C@@H](O)CC(=O)O[C@H](C(=O)[C@H](C)C(=O)[*:2])C(C)C; NMeY = CN[C@@H](Cc1ccc(O)cc1)C(=O)O; dNMeL = CN[C@H](CC(C)C)C(=O)O; ξΔPro = O=C(O)C1C=CCN1
Possible outcomes: 1 for active, -1 for inactive

compound	classification
CC[C@H](C)[C@H]1NC(=O)[C@@H](NC(=O)[C@@H](CC(C)C)N(C)C(=O)C2C=CCN2)[C@@H](C)OC(=O)[C@H](Cc2ccc(OC)cc2)N(C)C(=O)[C@@H]2CCCN2C(=O)[C@H](CC(C)C)NC(=O)[C@@H](C)C(=O)[C@H](C(C)C)OC(=O)C[C@@H]1O (some centres undefined) (H-[ξΔPro][dNMeL]T[X37]LP[NMeY](Me); ester 3-C)	1
O=C(OCc1ccccc1)c1nc2ccccc2n1S(=O)(=O)c1ccccc1	-1
O=C(Nc1nnc(-c2ccccc2)o1)C(SC(=S)N1CCCCC1)c1ccccc1 (centres undefined)	-1
CN1C2=C(CC3=C1CC(C)(C)CC3=O)C(=O)CC(C)(C)C2	-1
CN(C)C(=O)C(NCCO)c1ccccc1 (centres undefined)	-1
CC(=O)N1C(=O)/C(=C\C(=O)c2ccc(Cl)cc2)c2ccccc21	-1
COc1cccc(C=C2N=C(c3ccccc3)N(n3c(-c4ccccc4)nc4ccccc4c3=O)C2=O)c1	-1
NC1(P(=O)(O)O)CCCCC1	-1
OC1C#CCSCC#C/C=C\1 (centres undefined)	-1
CC(C)(Cl)C(Br)CCC(Br)(CCl)C(Cl)CBr (centres undefined)	-1
COC(=O)/C=C(/OC)[C@H](C)[C@H](/C=C/c1csc(-c2csc(C(C)C)n2)n1)OC	-1
C#CC1(OC(C)=O)CCC2C3CC=C4C=C(OC(C)=O)CCC4(C)C3CCC21C (centres undefined)	-1
Cc1cc(/N=N/c2c(O)ccc3ccccc23)ccc1/N=N/c1cccc([N+](C)(C)C)c1	-1
COc1c(C(C)(C)C)cc(CC2C(=O)C=CC2=O)cc1C(C)(C)C	-1
CSC1(C(=O)O)C2CCC3C2CCC31 (centres undefined)	-1
COC(=O)c1oc([N+](=O)[O-])c(Cl)c1Cl	-1
CC(=O)N(CN1C(=O)CCC1C(=O)O)c1ccc(C)cc1 (centres undefined)	-1
CC(=O)OC1=NN=C2COC(c3ccccc3OC(C)=O)=NN2C1	-1
CCCCCc1c2nc(c(CCCCC)c3ccc([nH]3)c(CCCCC)c3nc(c(CCCCC)c4ccc1[nH]4)C=C3)C=C2	-1

###

test system: OVCAR-5; assay: NCI tumour cell line growth inhibition, 48 h
Activity calls are given as the source filed them. Cut-off read from the data, not from the text of the source: active = GI50 up to about 1.1 µM and inactive = higher. Starred links: 1 amine or outer side, 2 acyl side, 3 side chain; linkers in the order of their positions; H or OH if unused. Positions of bridges follow the written chain, without caps; N, C: chain ends. Non-standard residues stand in square brackets, D forms with d. Residues, ends and D or L forms follow the SMILES beside them. ξ: configuration not given here. X37 = CC[C@H](C)[C@@H](N[*:1])[C@@H](O)CC(=O)O[C@H](C(=O)[C@H](C)C(=O)[*:2])C(C)C; NMeY = CN[C@@H](Cc1ccc(O)cc1)C(=O)O; dNMeL = CN[C@H](CC(C)C)C(=O)O; ξΔPro = O=C(O)C1C=CCN1
Possible outcomes: active, inactive

compound	study_target	classification
N=C(N)NS(=O)(=O)c1ccc(NC(=O)c2cccc3c(NNc4ccc(C(=O)O)cc4)c4ccccc4nc23)cc1	OVCAR-5	inactive
COc1cccc2c1OC1(C=C2)Oc2ccccc2C(=O)N1C (stereo not drawn)	OVCAR-5	inactive
C=C1CC(OC)(C(OC)C(=O)N(C)[C@H]2OCO[C@H]3C2O[C@H](C[C@@H](COC)OC)C(C)(C)C3OC)O[C@H](C)[C@@H]1C (stereo partly drawn)	OVCAR-5	inactive
COC(=O)/C(=N\N)C(C(=O)C(=O)Nc1cc(Cl)ccc1Cl)c1nc2ccc([N+](=O)[O-])cc2nc1O (stereo not drawn)	OVCAR-5	inactive
C/C(CN1C(=O)c2ccccc2C1=O)=N\NS(=O)(=O)c1ccc2ccccc2c1	OVCAR-5	inactive
C(/c1ccco1)=c1/nc(-c2ccccc2)n2c1nc1ccccc12	OVCAR-5	inactive
Cc1cc2c3ccccc3n3c2c2c1OC1(C)CCC(C2C1)C3(C)C (stereo not drawn)	OVCAR-5	inactive
Fc1nc(F)nc(-c2c3ccccc3c3n2CCS3)n1	OVCAR-5	inactive
CSc1nc(NC2OC(CO)C(O)C(O)C2O)c(N)c(=O)n1C (stereo not drawn)	OVCAR-5	inactive
OCCOCn1cc(Cn2ncc3c(SCc4ccccc4)ncnc32)nn1	OVCAR-5	inactive
Cn1c2ccccc2c(=O)c2c([N+](=O)[O-])ccc(NCCN)c21	OVCAR-5	inactive
O=C(N/C(=C\c1ccc(/C=C(\NC(=O)c2ccccc2)c2nc3ccccc3s2)cc1)c1nc2ccccc2s1)c1ccccc1	OVCAR-5	inactive
O=[N+]([O-])c1ccc(C[P+](c2ccccc2)(c2ccccc2)c2ccccc2)cc1	OVCAR-5	inactive
Cc1c(F)c(N)c2c(=O)cc(-c3ccc(NC(=O)CN(C)C)c(F)c3)oc2c1F	OVCAR-5	inactive
Nc1nc2c(ncn2C2C=CC(COS(N)(=O)=O)C2)c(=O)[nH]1 (stereo not drawn)	OVCAR-5	inactive
CC[C@H](C)[C@H]1NC(=O)[C@@H](NC(=O)[C@@H](CC(C)C)N(C)C(=O)C2C=CCN2)[C@@H](C)OC(=O)[C@H](Cc2ccc(OC)cc2)N(C)C(=O)[C@@H]2CCCN2C(=O)[C@H](CC(C)C)NC(=O)[C@@H](C)C(=O)[C@H](C(C)C)OC(=O)C[C@@H]1O (stereo partly drawn) (H-[ξΔPro][dNMeL]T[X37]LP[NMeY](Me); ester 3-C)	OVCAR-5	active
O=C1c2ccccc2C(=O)c2c(O)c(NCCNCCO)cc(O)c21	OVCAR-5	inactive
O=c1c2cc(I)ccc2nc(SCc2n[nH]c(=S)o2)n1Cc1ccccc1	OVCAR-5	inactive
CCCN1C(=O)CN(S(=O)(=O)c2ccc(Cl)cc2)C1=O	OVCAR-5	inactive
N=c1oc2ccccc2cc1-c1nc2ccccc2[nH]1	OVCAR-5	inactive
CN(C)CCNC(=O)c1ccc(C(=O)NCCN(C)C)c2nc3ccccc3cc12	OVCAR-5	inactive
O=C1C(Cl)C(c2cccc(O)c2)N1n1cnc2ccccc2c1=O (stereo not drawn)	OVCAR-5	inactive
O=C(N/N=C\c1c(O)ccc2ccccc12)c1ccncc1	OVCAR-5	inactive
N#CC(NCCc1ccccc1)c1ccc(C(C#N)NCCc2ccccc2)cc1 (stereo not drawn)	OVCAR-5	inactive
Cc1ccc(C2CC(c3ccco3)=NN2c2ccccc2)o1 (stereo not drawn)	OVCAR-5	inactive
O=C(NCCCCCCNC(=O)n1cc(F)c(=O)[nH]c1=O)NCCCOCCOCCOCCOCCOCCOCCOCCOCCOCCOCCOCCOCCOCCOCCOCCOCCOCCOCCOCCOCCOCCCNC(=O)C(O)C(O)C(OC1OC(CO)C(O)C(O)C1O)C(O)CO (stereo not drawn)	OVCAR-5	inactive
COC(=O)C1CC(c2ccc(Cl)cc2)=NO1 (stereo not drawn)	OVCAR-5	inactive
C=CCOC(=O)NC1C(OC(C)[C@@H](NC(=O)OCc2ccccc2)C(=O)OC(C)(C)C)OC(COC(C)=O)C(OC(C)=O)C1OC(C)=O (stereo partly drawn)	OVCAR-5	inactive
CCCCCCCCCCCCCCCCP(=O)(O)OCC(N)C(=O)O (stereo not drawn)	OVCAR-5	inactive
COC(=O)CC(SCCO)SCCO	OVCAR-5	inactive
O=C(/C=C/c1ccc(O)c(O)c1)NC(CO)C(=O)O (stereo not drawn)	OVCAR-5	inactive
O=C(O)CSc1nnc(/C=C/c2ccccc2)[nH]1	OVCAR-5	inactive
COc1cc(C2c3cc4c(cc3OC(N3CCOCC3)C2C)OCO4)ccc1O (stereo not drawn)	OVCAR-5	inactive
Cc1nc2c(nc1C)C(=O)c1cc(O)ccc1C2=O	OVCAR-5	inactive
O=c1[nH]/c(=C/c2ccc(OCc3ccccc3)cn2)c(=O)[nH]/c1=C/c1ccccc1	OVCAR-5	active
C=C1C(=O)O[C@H]2C(=O)[C@H](C)CCC/C(C)=C/CC[C@@]3(C)O[C@@H]3C[C@@H]12	OVCAR-5	inactive
COC(=O)C1=C(C(=O)OC)C(C(=O)OC)C(C(=O)OC)=C1C(=O)OC	OVCAR-5	inactive
CC#CC#C/C=C1\C=CC2(OC=CC2O)O1 (stereo not drawn)	OVCAR-5	inactive

Reference for the values: ChEMBL document CHEMBL1201862
